target: recombinant hRIPK2 protein (kinase domain aa 1-299-His-tagged) (Homo sapiens, UniProt O43353)
Construct: kinase domain aa 1-299-His-tagged
Sequence (O43353 1-299): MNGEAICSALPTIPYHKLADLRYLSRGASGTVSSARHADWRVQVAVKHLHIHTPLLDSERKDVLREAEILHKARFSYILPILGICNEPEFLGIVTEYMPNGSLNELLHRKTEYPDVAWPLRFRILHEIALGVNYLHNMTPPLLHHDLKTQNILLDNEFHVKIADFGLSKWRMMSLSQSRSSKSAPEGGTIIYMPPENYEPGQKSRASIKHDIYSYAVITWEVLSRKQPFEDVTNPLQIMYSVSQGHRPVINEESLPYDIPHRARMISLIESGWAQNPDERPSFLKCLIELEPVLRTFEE
experimental-protocol: RIPK2 AlphaLISA assay (displacement of bead-bound CZC-8004 from hRIPK2)
cond: recombinant hRIPK2 kinase domain 10 nM, 2 h at 23° C.
pIC50: −log10 of the molar value.
measured-attribute: pIC50

Look up pIC50 for this molecule: CO[C@@H]1C[C@H]2COc3ccn4ncc(c4n3)-c3cc(cc(OCc4cccnc4)c3)NCCN2C1=O [Example 44]
7.00 to 8.00

Look up pIC50 for this molecule: CO[C@@H]1C[C@H]2COc3nc4c(cnn4cc3C)-c3cc(cc(OCC4CCOC4)c3)NCCN2C1=O (stereo partly shown) [Example 50]
7.00 to 8.00

Look up pIC50 for this molecule: COc1cc2cc(c1)-c1cnn3ccc(nc13)OC[C@@H]1C[C@@H](OCC3CCO3)C(=O)N1CCN2 (stereo partly shown) [Example 120]
> 8.00

Look up pIC50 for this molecule: CCO[C@@H]1C[C@@H]2COc3ccn4ncc(c4n3)-c3cc(cc(OC)c3)NCCN2C1=O [Example 87]
4.96 to 7.00

Look up pIC50 for this molecule: COc1cc2cc(c1)-c1cnn3ccc(nc13)OC[C@@H]1C[C@@H](OC)C(=O)N1CC(C)N2 (single isomer, unassigned) [Example 105]
> 8.00

Look up pIC50 for this molecule: CO[C@@H]1C[C@H]2COc3nc4c(cnn4cc3C)-c3cc(cc(OCC4CC4)c3)NCCN2C1=O [Example 48]
4.96 to 7.00

Look up pIC50 for this molecule: COCCO[C@@H]1C[C@H]2COc3nc4c(cnn4cc3OC)-c3cc(cc(OC)c3)NCCN2C1=O (racemic) [Example 117]
> 8.00

---

target: recombinant hRIPK2 protein (kinase domain aa 1-299-His-tagged) (Homo sapiens)
Construct: kinase domain aa 1-299-His-tagged
experimental-protocol: RIPK2 AlphaLISA assay (displacement of bead-bound CZC-8004 from hRIPK2)
cond: recombinant hRIPK2 kinase domain 10 nM, 2 h at 23° C.
Reported IC50 values follow for various molecules

Answered cases to consult:
> print(dat)
                                   molecule                                    target  measured.attribute     assay.value
1  COCCO[C@@H]1C[C@H]2COc3ccn4ncc(c4n3)-c3cc(F)cc(c3)NCCN2C1=O  recombinant hRIPK2 protein (kinase domain aa 1-299-His-tagged) (Homo sapiens)                IC50       < 0.01 µM
2  [2H]C([2H])([2H])Oc1cc2cc(c1)-c1cnn3ccc(nc13)OC[C@@H]1C[C@@H](OC)C(=O)N1CCN2  recombinant hRIPK2 protein (kinase domain aa 1-299-His-tagged) (Homo sapiens)                IC50       < 0.01 µM
3  COCCO[C@@H]1C[C@H]2COc3nc4c(cnn4cc3OC)-c3cc(C#N)cc(c3)NCCN2C1=O  recombinant hRIPK2 protein (kinase domain aa 1-299-His-tagged) (Homo sapiens)                IC50       < 0.01 µM
4  CCc1cc2cc(c1)-c1cnn3ccc(nc13)OC[C@@H]1C[C@@H](OC)C(=O)N1CCN2  recombinant hRIPK2 protein (kinase domain aa 1-299-His-tagged) (Homo sapiens)                IC50  0.01 to 0.1 µM
5  CO[C@@H]1CC2(C)COc3ccn4ncc(c4n3)-c3cc(F)cc(c3)NCCN2C1=O (stereo partly drawn) [Example 40]  recombinant hRIPK2 protein (kinase domain aa 1-299-His-tagged) (Homo sapiens)                IC50       < 0.01 µM
6  COc1cn2ncc3c2nc1OC[C@@H]1C[C@@H](OC)C(=O)N1CCNc1cc(F)cc-3c1  recombinant hRIPK2 protein (kinase domain aa 1-299-His-tagged) (Homo sapiens)                IC50       < 0.01 µM
7  CO[C@@H]1C[C@H]2COc3ccn4ncc(c4n3)-c3cc(cc(F)c3F)NCCN2C1=O  recombinant hRIPK2 protein (kinase domain aa 1-299-His-tagged) (Homo sapiens)                IC50  0.01 to 0.1 µM
8  CO[C@@H]1C[C@H]2COc3nc4c(cnn4cc3C)-c3cc(cc(-n4cccn4)c3)NCCN2C1=O  recombinant hRIPK2 protein (kinase domain aa 1-299-His-tagged) (Homo sapiens)                IC50       < 0.01 µM

Now let's try a different one.
Look up IC50 for this molecule: CO[C@@H]1C[C@H]2COc3nc4c(cnn4cc3-c3cn(C)nc3C)-c3cc(F)cc(c3)NCCN2C1=O
< 0.01 µM

---

target: recombinant hRIPK2 protein (kinase domain aa 1-299-His-tagged) (Homo sapiens)
Construct: kinase domain aa 1-299-His-tagged
experimental-protocol: RIPK2 AlphaLISA assay (displacement of bead-bound CZC-8004 from hRIPK2)
cond: recombinant hRIPK2 kinase domain 10 nM, 2 h at 23° C.
Description: RIPK2 AlphaLISA® Assay (Amplified Luminescent Proximity Homogeneous Assay) A non-specific kinase inhibitor (CZC-8004 Cayman #916603-07-1) bound to an acceptor bead (#6772001 PerkinElmer) was mixed to the recombinant hRIPK2 protein (kinase domain aa 1-299-His-tagged—Life Technologies PR7829A) and a Ni2+-tagged donor beads (#AS101D PerkinElmer). […] Read using EnVision®-Alpha Reader (PerkinElmer) according to manufacturer specifications.
pIC50: −log10 of the molar value.
measured-attribute: pIC50

Answered cases to consult:
> print(dat)
                                   compound                                    target  measured.attribute   assay.value
1  CCO[C@@H]1C[C@H]2COc3ccn4ncc(c4n3)-c3cc(cc(C(N)=O)c3)NCCN2C1=O  recombinant hRIPK2 protein (kinase domain aa 1-299-His-tagged) (Homo sapiens)               pIC50        > 8.00
2  CO[C@@H]1C[C@H]2COc3ccn4ncc(c4n3)-c3cc(cc(-c4cn(C)nn4)c3)NCCN2C1=O  recombinant hRIPK2 protein (kinase domain aa 1-299-His-tagged) (Homo sapiens)               pIC50  7.00 to 8.00
3  C#Cc1cc2cc(c1)-c1cnn3ccc(nc13)OC[C@@H]1C[C@@H](OCC)C(=O)N1CCN2  recombinant hRIPK2 protein (kinase domain aa 1-299-His-tagged) (Homo sapiens)               pIC50        > 8.00

Look up pIC50 for this compound: CO[C@@H]1C[C@H]2COc3ccn4ncc(c4n3)-c3cc(F)cc(c3)N(C)CCN2C1=O
7.00 to 8.00

Look up pIC50 for this compound: COCCO[C@@H]1C[C@H]2COc3nc4c(cnn4cc3OCCO)-c3cc(cc(OC)c3)NCCN2C1=O
> 8.00

Look up pIC50 for this compound: COCc1cc2cc(c1)-c1cnn3cc(C)c(nc13)OC[C@@H]1CC(OC)C(=O)N1CCN2 (single isomer, unassigned) [Example 65]
> 8.00

Look up pIC50 for this compound: [2H]C([2H])([2H])Oc1cc2cc(c1)-c1cnn3ccc(nc13)OC[C@@H]1C[C@@H](OCC)C(=O)N1CCN2
> 8.00

---

target: recombinant hRIPK2 protein (kinase domain aa 1-299-His-tagged) (Homo sapiens)
Construct: kinase domain aa 1-299-His-tagged
experimental-protocol: RIPK2 AlphaLISA assay (displacement of bead-bound CZC-8004 from hRIPK2)
cond: recombinant hRIPK2 kinase domain 10 nM, 2 h at 23° C.
pIC50: −log10 of the molar value.
Reported pIC50 values follow for various compounds

> print(dat)
                                   compound  measured.attribute   assay.value
1  CO[C@@H]1C[C@H]2COc3nc4c(cnn4cc3C)-c3cc(cc(OCc4cnn(C)c4)c3)NCCN2C1=O [Example 51]               pIC50  4.96 to 7.00
2  CO[C@@H]1C[C@H]2COc3nc4c(cnn4cc3C)-c3cc(cc(OCc4cccnc4)c3)NCCN2C1=O [Example 49]               pIC50  7.00 to 8.00
3  CCO[C@@H]1C[C@H]2COc3nc4c(cnn4cc3OC)-c3cc(cc(OC)c3)NCCN2C1=O [Example 132]               pIC50        > 8.00

Now let's try a different one.
Look up pIC50 for this compound: COc1cn2ncc3c2nc1OC[C@@H]1C[C@@H](OC)C(=O)N1CCNc1cc-3cc(C(F)(F)F)c1 [Example 2]
> 8.00
